Reference source for all entries: patent US20250382369A1

Molecular target: T1, human 4Ig-B7-H3 expressed on transduced cells (human, UniProt Q5ZPR3 29-534)
T1 construct: also called isoform 1; Jurkat-B7H3
T1 sequence: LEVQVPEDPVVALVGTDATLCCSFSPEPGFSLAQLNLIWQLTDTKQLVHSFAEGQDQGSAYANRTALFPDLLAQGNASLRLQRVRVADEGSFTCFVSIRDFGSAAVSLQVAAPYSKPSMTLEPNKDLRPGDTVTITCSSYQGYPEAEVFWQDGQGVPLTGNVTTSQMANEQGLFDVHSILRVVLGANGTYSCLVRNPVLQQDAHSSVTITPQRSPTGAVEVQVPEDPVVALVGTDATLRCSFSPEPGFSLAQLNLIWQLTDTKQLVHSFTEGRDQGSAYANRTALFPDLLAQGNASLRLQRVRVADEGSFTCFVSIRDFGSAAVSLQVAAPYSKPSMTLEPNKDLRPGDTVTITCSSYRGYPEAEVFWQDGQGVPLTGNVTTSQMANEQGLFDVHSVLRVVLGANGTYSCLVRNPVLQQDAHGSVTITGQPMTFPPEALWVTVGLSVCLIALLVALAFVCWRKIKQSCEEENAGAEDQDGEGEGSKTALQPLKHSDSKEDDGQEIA
Experiment: flow cytometry, scFv-Fc on Jurkat cells transduced with B7-H3 isoforms (FIG. 2D)
QUANTITY NAME: binding result

q: For the binder TE9 scFv-Fc fusion protein (Fc fusion, not shown: a dimerising Fc or GST; small tags and cut ends) scFv: QVQLQQSGAALVKPGTSVKLSCKASGYTFTSYWMHWVKQRPGQGLEWIGMIHPKSGSVDYNEKFTNKATLTGDKSSGTAYMQLSSLTSEDSAVYYCARGGYGSPFDYWGQGTTVTVSSGGGGSGGGGSGGGGSENVLTQSPAIMSASPGEKVTMTCSASSSVSYMYWYQQKPGSSPRLLIYRTSNLASGVPARFSGSGSGTSYSLTISSMEAEDAATYYCQQWSSNPPTFGGGTKLEIK , give its measured binding result value.
a: binds

q: State its binding result: BH6 scFv-Fc fusion protein (Fc fusion, not shown: a dimerising Fc or GST; small tags and cut ends) scFv: QVKLQQSGADLVKPGASVKLSCKASGYTFTSYWMHWVKQRPGQGLEWIGMIHPNSDGTNYNEKFKNRATLTVDKSSSTAYMQLNSLTSEDSAVYYCARWSYGMDSWGQGTTVTVSSGGGGSGGGGSGGGGSDIVLTQSPASLAVSLGQRATITCSASSSVSYMHWYQQKSGTSPKRWIYDTSKLASGVPARFSGSGSGTSYSLTISSMEAEDAATYYCQQWSRNPLTFGAGTKLEIK
a: binds

q: Answer with reported binding result of TF9 scFv-Fc fusion protein (Fc fusion, not shown: Fc of the scFv-Fc fusion, and any hinge or junction to it) scFv: QVKLQESGAELVKPGASVKLSCKASGYTFTSYWIHWVKQRPGQGLEWIGMIHPKSGSINYNEKFRSKATLTVDKSSSTAYMQLSRLTSEDSAVYFCASGGYGSSLDYWGQGTTVTVSSGGGGSGGGGSGGGGSENVLTQSPAIMSASPGEKVTISCSASSSVSYVYWYQQKPGSSPKPWIYRTSNLASGVPARFSGSGSGTSYSLTISSMEAEDAATYYCQQWSSNPLTFGAGTKLELK
a: binds
